System: Staphylococcus aureus 209 P JC-1
Test: in vitro antimicrobial activity, two-fold agar-plate dilution method, S. aureus 209 P JC-1
Type: cell-based
Conditions: 209PJC1, Table 1, S. aureus 209 P JC-1, 37° C., 20 hours, read-out: minimum inhibitory concentration (MIC)
Structures can show the parent of a compound that is named as a salt.
observed property: MIC
Report as: number unit

1) CC1C=C(C(=O)O)N2C(=O)C(NC(=O)Cc3cnsn3)[C@H]2S1 (stereo partly shown) :: 3.13 µg/mL
2) C=CCSCC(=O)NC1C(=O)N2C(C(=O)O)=CC(C)S[C@H]12 (stereo partly shown) :: 1.56 µg/mL
3) CC1C=C(C(=O)O)N2C(=O)C(NC(=O)C(N)c3ccccc3)C2S1 (stereo not shown) :: 6.25 µg/mL
4) CC1C=C(C(=O)O)N2C(=O)C(NC(=O)CC#N)[C@H]2S1 (stereo partly shown) :: 3.13 µg/mL

Each molecule below has a reported value. Please supply its MIC.
1. CSc1ccc(C(N)C(=O)NC2C(=O)N3C(C(=O)O)=CC(C)S[C@H]23)cc1 (stereo partly shown)
2. CC1C=C(C(=O)O)N2C(=O)C(NC(=O)Cc3csc(N)n3)[C@H]2S1 (stereo partly shown)
3. CC1=C(C(=O)O)N2C(=O)C(NC(=O)Cc3cccs3)[C@H]2SC1 (stereo partly shown) [cited compound (5), reference compound]
4. CC1C=C(C(=O)O)N2C(=O)C(NC(=O)C(N=[N+]=[N-])c3ccccc3)[C@H]2S1 (stereo partly shown)
5. CC1C=C(C(=O)O)N2C(=O)C(NC(=O)Cc3ccccc3)[C@H]2S1 (stereo partly shown)
6. CC1C=C(C(=O)O)N2C(=O)C(NC(=O)C(O)c3ccccc3)[C@H]2S1 (stereo partly shown)
7. CC1=C(C(=O)O)N2C(=O)C(NC(=O)C(O)c3cccs3)C2SC1 (stereo not shown) [cited compound (2), (sodium salt), reference compound]
8. CC1=C(C(=O)O)N2C(=O)C(NC(=O)CSc3ccccc3)C2SC1 (stereo not shown) [cited compound (9), reference compound]

// result
3.13 µg/mL
1.56 µg/mL
3.13 µg/mL
1.56 µg/mL
0.78 µg/mL
0.78 µg/mL
6.25 µg/mL
0.39 µg/mL

Each molecule below has a reported value. Please supply its MIC.
1. CC1C=C(C(=O)O)N2C(=O)C(NC(=O)Cc3cccnc3)[C@H]2S1 (stereo partly shown)
2. CC1=C(C(=O)O)N2C(=O)C(NC(=O)Cc3cccnc3)[C@H]2SC1 (stereo partly shown) [cited compound (15), reference compound]
3. CC1C=C(C(=O)O)N2C(=O)C(NC(=O)C(C(=O)Oc3ccc4c(c3)CCC4)c3ccccc3)[C@H]2S1 (stereo partly shown)
4. C=CCSCC(=O)NC1C(=O)N2C(C(=O)O)=C(C)CS[C@H]12 (stereo partly shown) [cited compound (14), reference compound]
5. CC1=C(C(=O)O)N2C(=O)C(NC(=O)CSc3nncs3)[C@H]2SC1 (stereo partly shown) [cited compound (11), reference compound]
6. CC1=C(C(=O)O)N2C(=O)C(NC(=O)Cc3cnsn3)[C@H]2SC1 (stereo partly shown) [cited compound (12), reference compound]
7. CC1C=C(C(=O)O)N2C(=O)C(NC(=O)Cc3cccs3)[C@H]2S1 (stereo partly shown)

// result
3.13 µg/mL
6.25 µg/mL
1.56 µg/mL
6.25 µg/mL
3.13 µg/mL
12.5 µg/mL
0.78 µg/mL

Each molecule below has a reported value. Please supply its MIC.
1. CC1C=C(C(=O)O)N2C(=O)C(NC(=O)C(OC(=O)c3ccncc3)c3ccccc3)[C@H]2S1 (stereo partly shown)
2. CC1C=C(C(=O)O)N2C(=O)C(NC(=O)Cc3cccc(Cl)c3)[C@H]2S1 (stereo partly shown)

// result
0.39 µg/mL
0.1 µg/mL

Each molecule below has a reported value. Please supply its MIC.
1. CC1C=C(C(=O)O)N2C(=O)C(NC(=O)C(NC(=O)CSc3nncs3)c3ccccc3)[C@H]2S1 (stereo partly shown)
2. CC1C=C(C(=O)O)N2C(=O)C(NC(=O)C(O)c3cccs3)[C@H]2S1 (stereo partly shown)
3. CC1C=C(C(=O)O)N2C(=O)C(NC(=O)CSc3ccccc3)C2S1 (stereo not shown)
4. CC1C=C(C(=O)O)N2C(=O)C(NC(=O)CSc3nncs3)[C@H]2S1 (stereo partly shown)

// result
1: 1.56 µg/mL; 2: 0.78 µg/mL; 3: 0.2 µg/mL; 4: 1.56 µg/mL

====

System: Staphylococcus aureus 277
observed property: MIC (µg/mL)
One number for each entry, in µg/mL.

Worked examples follow.
1) CC1=C(C(=O)O)N2C(=O)C(NC(=O)Cc3ccccc3)[C@H]2SC1 (stereo partly shown) [cited compound (8), reference compound] :: 1.56
2) CC1=C(C(=O)O)N2C(=O)C(NC(=O)C(OC(=O)c3ccncc3)c3ccccc3)C2SC1 (stereo not shown) [cited compound (4), reference compound] :: 12.5
3) CC1=C(C(=O)O)N2C(=O)C(NC(=O)Cc3cnsn3)[C@H]2SC1 (stereo partly shown) [cited compound (12), reference compound] :: 25

// query Which MIC value is on record for CC1C=C(C(=O)O)N2C(=O)C(NC(=O)Cc3csc(N)n3)[C@H]2S1 (stereo partly shown) [Applicants' compound (17)] ?
// result 1.56

====

So I've got MIC readings for Staphylococcus aureus 277, take a look.
Where a name gives a salt, the structure may show the parent alone.
Give bare numbers, in µg/mL.

1. CC1C=C(C(=O)O)N2C(=O)C(NC(=O)C(N=[N+]=[N-])c3ccccc3)[C@H]2S1 (stereo partly shown) :: 12.5
2. CC1C=C(C(=O)O)N2C(=O)C(NC(=O)Cc3cnsn3)[C@H]2S1 (stereo partly shown) :: 6.25
3. CC1C=C(C(=O)O)N2C(=O)C(NC(=O)C(O)c3ccccc3)[C@H]2S1 (stereo partly shown) :: 6.25
4. CC1=C(C(=O)O)N2C(=O)C(NC(=O)CC#N)[C@H]2SC1 (stereo partly shown) [cited compound (13), reference compound] :: 12.5
5. CSc1ccc(C(N)C(=O)NC2C(=O)N3C(C(=O)O)=CC(C)S[C@H]23)cc1 (stereo partly shown) :: 25

Each compound below has a reported value. Please supply its MIC.
1. CC1C=C(C(=O)O)N2C(=O)C(NC(=O)CC#N)[C@H]2S1 (stereo partly shown)
2. C=CCSCC(=O)NC1C(=O)N2C(C(=O)O)=CC(C)S[C@H]12 (stereo partly shown)
3. CC1C=C(C(=O)O)N2C(=O)C(NC(=O)CSc3nncs3)[C@H]2S1 (stereo partly shown)
4. CC1C=C(C(=O)O)N2C(=O)C(NC(=O)C(OC(=O)c3ccncc3)c3ccccc3)[C@H]2S1 (stereo partly shown)
5. CC1C=C(C(=O)O)N2C(=O)C(NC(=O)Cc3cccs3)[C@H]2S1 (stereo partly shown)
6. CC1C=C(C(=O)O)N2C(=O)C(NC(=O)C(O)c3cccs3)[C@H]2S1 (stereo partly shown)

// result
[3.13, 1.56, 3.13, 6.25, 1.56, 3.13]

Each compound below has a reported value. Please supply its MIC.
1. C=CCSCC(=O)NC1C(=O)N2C(C(=O)O)=C(C)CS[C@H]12 (stereo partly shown) [cited compound (14), reference compound]
2. CC1=C(C(=O)O)N2C(=O)C(NC(=O)C(O)c3cccs3)C2SC1 (stereo not shown) [cited compound (2), (sodium salt), reference compound]
3. CC1C=C(C(=O)O)N2C(=O)C(NC(=O)Cc3cccnc3)[C@H]2S1 (stereo partly shown)
4. CC1C=C(C(=O)O)N2C(=O)C(NC(=O)C(NC(=O)CSc3nncs3)c3ccccc3)[C@H]2S1 (stereo partly shown)

// result
1: 6.25; 2: 12.5; 3: 25; 4: 12.5

Each compound below has a reported value. Please supply its MIC.
1. CC1=C(C(=O)O)N2C(=O)C(NC(=O)CSc3nncs3)[C@H]2SC1 (stereo partly shown) [cited compound (11), reference compound]
2. CC1=C(C(=O)O)N2C(=O)C(NC(=O)Cc3cccnc3)[C@H]2SC1 (stereo partly shown) [cited compound (15), reference compound]
3. CC1=C(C(=O)O)N2C(=O)C(NC(=O)C(O)c3ccccc3)[C@H]2SC1 (stereo partly shown) [cited compound (7), reference compound]

// result
6.25
6.25
12.5

// query Which MIC value is on record for CC1C=C(C(=O)O)N2C(=O)C(NC(=O)C(C(=O)Oc3ccc4c(c3)CCC4)c3ccccc3)[C@H]2S1 (stereo partly shown) ?
// result 0.78

====

So I've got MIC readings for Staphylococcus aureus 277, take a look.
Report as: number unit

Worked examples follow.
1) CC1=C(C(=O)O)N2C(=O)C(NC(=O)Cc3cccs3)[C@H]2SC1 (stereo partly shown) [cited compound (5), reference compound] :: 12.5 µg/mL
2) CC1C=C(C(=O)O)N2C(=O)C(NC(=O)Cc3cccc(Cl)c3)[C@H]2S1 (stereo partly shown) [Applicants' compound (6)] :: 0.78 µg/mL
3) CC1C=C(C(=O)O)N2C(=O)C(NC(=O)CSc3ccccc3)C2S1 (stereo not shown) [Applicants' compound (9)] :: 1.56 µg/mL
4) CC1=C(C(=O)O)N2C(=O)C(NC(=O)CSc3ccccc3)C2SC1 (stereo not shown) [cited compound (9), reference compound] :: 0.39 µg/mL

Each compound below has a reported value. Please supply its MIC.
1. CC1C=C(C(=O)O)N2C(=O)C(NC(=O)Cc3ccccc3)[C@H]2S1 (stereo partly shown) [Applicants' compound (8)]
2. CC1=C(C(=O)O)N2C(=O)C(NC(=O)C(N)c3ccccc3)[C@H]2SC1 (stereo partly shown) [cited compound (18), reference compound]
3. CC1C=C(C(=O)O)N2C(=O)C(NC(=O)C(N)c3ccccc3)C2S1 (stereo not shown) [Applicants' compound (18)]

// result
1. 3.13 µg/mL
2. 3.13 µg/mL
3. 12.5 µg/mL
